CC50 at 72 h values, listed per item
assay: Cytotoxicity against human HuH5.2 cells assessed as reduction in cell viability after 72 hrs by MTS assay; assay type: cell-based, Huh-5-2

Please supply the value of reported CC50 at 72 h for the item `COc1ccc(S(=O)(=O)NCCN2CCN(CCNS(=O)(=O)c3ccc(OC)c(OC)c3)CC2)cc1OC`
> 87.3 µM

Please supply the value of reported CC50 at 72 h for the item `CC(C)(C)c1ccc(C(=O)Oc2ccc3c(-c4ccccc4C(=O)O)c4ccc(=O)cc-4oc3c2)cc1`
> 102 µM

Please supply the value of reported CC50 at 72 h for the item `O=S(=O)(NCCCN1CCN(CCCNS(=O)(=O)c2cccnc2)CC1)c1cccnc1`
> 207 µM

Please supply the value of reported CC50 at 72 h for the item `COc1ccc(S(=O)(=O)NCCC(=O)N2CCN(C(=O)CCNS(=O)(=O)c3ccc(OC)cc3)CC2)cc1`
> 87.9 µM

Please supply the value of reported CC50 at 72 h for the item `COc1ccc(OC)c(S(=O)(=O)NCCN2CCN(CCNS(=O)(=O)c3cc(OC)ccc3OC)CC2)c1`
> 87.3 µM

Please supply the value of reported CC50 at 72 h for the item O=C1N/C(=N/N=C/c2ccccc2O)SC1Cc1ccc(Br)cc1 (stereo unspecified)
15.7 µM

Please supply the value of reported CC50 at 72 h for the item `O=C(CCNS(=O)(=O)c1ccccc1)N1CCN(CCCNS(=O)(=O)c2ccccc2)CC1`
> 202 µM

Please supply the value of reported CC50 at 72 h for the item `O=S(=O)(NCCCN1CCN(CCCNS(=O)(=O)c2ccc(C(F)(F)F)cc2)CC1)c1ccccc1`
70.8 µM

Please supply the value of reported CC50 at 72 h for the item `O=C(CCNS(=O)(=O)c1ccc(Cl)cc1)N1CCN(C(=O)CCNS(=O)(=O)c2ccc(Cl)cc2)CC1`
> 86.6 µM

Please supply the value of reported CC50 at 72 h for the item `O=S(=O)(NCCCN1CCN(CCCNS(=O)(=O)c2ccc(C(F)(F)F)cc2)CC1)c1ccc(Cl)cc1`
63.7 µM
